# System: MDA-MB-468 breast
# METHOD: NCI-60 one-dose screen, 48 h
# SETTINGS: 10 µM unless noted
This is part of a sample that, as a whole, favours compounds with a hit. Of some 83,000 tested, about 20% had one in any assay. Activity calls are given as the source filed them. Rule for the calls: active = growth percent below 10; inactive = the rest.
Output constraint: value belongs to T for active, F for inactive

COc1ccccc1NC(=O)c1ccc(/C=C/C(=O)c2nccn2C)cc1 ... T
O=[N+]([O-])c1cc(S(=O)(=O)Oc2ccccc2)ccc1Cl ... T
CC(C)OCCCNCC(=O)Nc1ccc(S(=O)(=O)c2ccc(NC(=O)CNCCCOC(C)C)cc2)cc1 ... F
N#CSc1cc(S(N)(=O)=O)ccc1N ... F
NC(=S)N=Nc1c(O)c2ccccc2c2ccccc12 ... F

Recorded call for `COc1ccc(-c2nc(SCC(C)C)nc(N/N=C\c3cccc([N+](=O)[O-])c3)c2C#N)cc1` ?
F

Each molecule tested received a call. Report the one for `N#Cc1c(NC(=O)c2cccc(C(F)(F)F)c2F)sc2c1CCC(=O)C2` .
T

Could you check what this test reported for `CC1(C)Oc2cc3oc(=O)ccc3cc2C[C@@H]1OCCOS(=O)(=O)c1ccc(C#N)cc1` ?
F

Dear colleague, could you share the recorded outcome for `CCN(CC)c1ccc(/C=N\NC(=O)/C=C/C=C/c2ccc3c(c2)OCO3)c(O)c1` when you have a moment?
F

Dear colleague, could you share the recorded outcome for `COc1ccc2nc3ccccc3c(NCCNCCO)c2c1` when you have a moment?
T
